# Assayed System: Virion infectivity factor (Human immunodeficiency virus type 1 group M subtype B (isolate BH10)) + Virion infectivity factor (Human immunodeficiency virus type 1 group M subtype B (isolate BRU/LAI)) + Virion infectivity factor (Human immunodeficiency virus type 1 group M subtype B (isolate PCV12)) + Virion infectivity factor (Human immunodeficiency virus type 1 group M subtype B (isolate HXB2)) + DNA dC->dU-editing enzyme APOBEC-3G (Homo sapiens) (UniProt P69720+P69721+P69722+P69723+Q9HC16)
# Assay Explanation: HIV-1 Vif–A3G interaction blockers – biochemical, TR-FRET, GST-Vif 1-94, biotin-A3G peptide, dose response retest, primary screen (AID 1117319);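 note: Vif residues 1-94 fused to GST binding biotinylated APOBEC3G peptide 110-148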
# Conditions Used: TR-FRET GST-Vif / biotin-A3G peptide binding
pIC50: −log10 of the molar value. Results filed as inconclusive are left out.
Would you mind labelling by pIC50? At or over 5 is TRUE, under is FALSE.

Check if pIC50 >= 5 (inclusive). Item: O=C(OC1CCCCC1)c1ccc2c(c1)C1C=CCC1C(C(=O)O)N2 (stereo unspecified) TRUE

Same read-out for COC(=O)\C(C(C)=O)=C(/C=C/C=C/C=C/N(C)C)N(C)C ? TRUE

Same read-out for COc1ccc(-c2cc(-c3ccco3)[nH]c(=O)c2C#N)cc1 ? FALSE

Same read-out for S=c1[nH]nc(COc2ccc3c(c2)OCO3)n1-c1ccccc1 ? FALSE

Same read-out for CC1=C(C#N)C(=O)N(C2CCS(=O)(=O)C2)C(=O)/C1=C\c1ccco1 (stereo unspecified) ? TRUE

Source of measurements: PubChem BioAssay AID1117319
